Cited source: patent US20220403022A1

TESTED TARGET: T1, His-tagged cynomolgus monkey TIGIT (cynomolgus monkey, UniProt A0A7N9I9V4 89-209)
T1 construct: also called Cyno TIGIT; cynomolgus monkey TIGIT (Novoprotein cat. No. CP02)
T1 sequence (A0A7N9I9V4 entry or part of it): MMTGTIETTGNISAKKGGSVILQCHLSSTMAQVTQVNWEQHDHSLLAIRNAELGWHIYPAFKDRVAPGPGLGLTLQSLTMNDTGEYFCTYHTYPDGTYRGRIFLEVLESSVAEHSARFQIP
EXPERIMENT NOTES: SPR Biacore, antibody captured on anti-human Fc, His-tagged TIGIT injected
MEASURED QUANTITY: kon
Give me the value, and tack the unit on after it.

Recorded kon, per entry:
3965D08 (antibody, human IgG1, V domains shown, constant regions correspond to those of H03-12 (human IgG1, kappa)) VH: EVQLVQSGSELKKPGASVKVSCKASGYTFTSYPMNWVRQAPGQGLEWMGWINTNTGNPTYAQGFTGRFVFSLDTSVSTAYLQISSLKAEDTAVYYCARTGYSGSYYWFDPWGQGTLVTVSS VL: DIRLTQSPSFLSASVGDRVTITCRASQGISSYLAWYQQKPGKAPKFLIYAASTLQSGVPSRFSGSGSGTEFTLTISSLQPEDFATYYCQQLNSYLTFGQGTRLEIK; 653000 M⁻¹ s⁻¹
3966C11 (antibody, human IgG1, V domains shown, constant regions correspond to those of H03-12 (human IgG1, kappa)) VH: EIQLVQSGSELKKPGASVKVSCKASGYTFTSYPMNWVRQAPGQGLEWMGWINTNTGNPTNAQGFTGRFVFSLDTSVSTAYLQISSLKAEDTAVYYCARVGGYGGYDYAFDIWGQGTMVTVSS VL: DIQLTQSPSFLSASVGDRVTITCRASQGISSYLAWYQQKPGKAPKLLIYAASTLQSGVPSRFSGSGSGTEFTLTISSLQPEDFATYYCQQLNSYPTFGGGTKLEIK; 118000 M⁻¹ s⁻¹
7728B03 (antibody, V domains shown, constant regions correspond to those of H03-12) VH: QMQLVQSGSELKKPGASVKVSCKASGYTFTSYPMNWVRQAPGQGLEWMGWINTNTGNPTYAQGFTGRFVFSLDTSVSTAYLQISSLKAEDTAVYYCARTGGYSVDEYSFDIWGQGTTVTVSS VL: DIQLTQSPSFLSASVGDRVTITCRASQGISSYLAWYQQKPGKAPKLLIYAASTLQSGVPSRFSGSGSGTEFTLTISSLQPEDFATYYCHQTIFRPTFGGGTKVEIK; 303000 M⁻¹ s⁻¹

Next binder, kon to be filled in.
Task: Report kon for 3963H03 (antibody, human IgG1, kappa, V domains shown, fully human IgG1 kappa, B-cell cloning hit from OmniRat; also called 3963H03 VH; 3963H03 VK) VH: EIQLVQSGSELKKPGASVKVSCKASGYTFTSYPMNWVRQAPGQGLEWMGWINTNTGNPTYAQGFTGRFVFSLDTSVSTAYLQISSLKAEDTAVYYCARVGGYSVDEYAFDVWGQGTMVTVSS VL: AIRLTQSPSFLSASVGDRVTITCRASQGISSYLAWYQQKPGKAPKLLIYAASTLQSGVPSRFSGSGSGTEFTLTISSLQPEDFATYYCQQLNSYPTFGGGTKVEIKR please.
Output: 147000 M⁻¹ s⁻¹
